Assay target: human GLP-1 receptor (human, UniProt P43220)
Method summary: cell-based or functional assay
Starred links: 1 amine or outer side, 2 acyl side, 3 side chain; linkers in the order of their positions; H or OH if unused. Non-standard residues stand in square brackets, D forms with d. Groups on a side chain read outwards from the residue. Primed or numbered codes have the meaning given here. No end group written: not given here. *: point of attachment. C18 diacid = O=C(O)CCCCCCCCCCCCCCCCC(=O)*; Dip = N[C@H](C(=O)O)C(c1ccccc1)c1ccccc1; γGlu = O=C(O)[C@H](CCC(=O)[*:2])N[*:1]; Stearoyl = CCCCCCCCCCCCCCCCCC(=O)*; Palmitoyl = CCCCCCCCCCCCCCCC(=O)*; αMeF = C[C@](N)(Cc1ccccc1)C(=O)O; Myristoyl = CCCCCCCCCCCCCC(=O)*; (PEG)2 = polyethylene glycol 2; PEG2′ = polyethylene glycol 2; αMeS = C[C@](N)(CO)C(=O)O; Dodecyl = CCCCCCCCCCCC*; AEEA = NCCOCCOCC(=O)O; Aib = CC(C)(N)C(=O)O
Labelling: cAMP production, hGLP-1R EC50 (pM) reported below 2 pM becomes 1 (yes); at or above becomes 0 (no).

Prompt line: Item H[αMeS]QGS[αMeF]TSDVSKILDSK([PEG2′-PEG2′-γGlu-γGlu-Palmitoyl])AAQD[αMeF]VQ[Aib]IINT-NH2 [Peptide 131] : cAMP production, hGLP-1R EC50 (pM) beneath 2 pM, strictly?
Response line: 1 (yes)

Prompt line: Queued: HSQGS[αMeF]TSDVSK[Aib]LDSK([(PEG)2-(PEG)2-γGlu-γGlu-Stearoyl])AAQD[αMeF]VQ[Aib]IAN-NH2 [Peptide 100]
Response line: 1 (yes)

Prompt line: Now give it for HSQGS[αMeF]TSDVSKILDSK([(PEG)2-(PEG)2-γGlu-Stearoyl])AAQD[αMeF]VQ[Aib]IINT-NH2 [Peptide 120] too.
Response line: 1 (yes)

Prompt line: Also check HSQGS[αMeF]TSDVSK[Dip]LDSK([(PEG)2-(PEG)2-γGlu-γGlu-Dodecyl])AAQD[αMeF]VE[Aib]IINT-NH2 [Peptide 62]
Response line: 0 (no)

Prompt line: Then H[Aib]QGTFTSDVSK[αMeF]LDSK([AEEA-AEEA-γGlu-C18 diacid])RARDFVRWLL[Aib]TE-OH (also: αMePhe at 23 (V)) [Peptide 166] ?
Response line: 0 (no)

Prompt line: Also H[Aib]QGS[αMeF]TSDVSKILDSK([(PEG)2-(PEG)2-γGlu-Stearoyl])AAQD[αMeF]VQ[Aib]IINT-NH2 [Peptide 127] ?
Response line: 1 (yes)

Prompt line: Now try HSQGS[αMeF]TSDVSKILDSK([(PEG)2-(PEG)2-γGlu-Myristoyl])AAQD[αMeF]VQ[Aib]IINT-NH2 [Peptide 122] .
Response line: 1 (yes)

Prompt line: Input HSQGS[αMeF]TSDVSK[Dip]LDSK([γGlu-(PEG)2-γGlu-(PEG)2-Stearoyl])AAQD[αMeF]VE[Aib]IINT-NH2 [Peptide 60]
Response line: 0 (no)

Prompt line: Entry H[Aib]QGS[αMeF]TSDVSKILDSK([(PEG)2-(PEG)2-γGlu-Myristoyl])AAQD[αMeF]VQ[Aib]IINT-NH2 [Peptide 129] please
Response line: 1 (yes)
